Origin of measurements: PubChem BioAssay (Tox21)

ASSAY_REMARKS: qHTS assay to identify small molecule antagonists of the estrogen receptor beta (ER-beta) signaling pathway - cell viability counter screen (AID 1259382); further: nearly all actives have a fitted effect of over 55% in size
MEASUREMENT_PARAMETERS: ER-beta-UAS-bla HEK293T viability, CellTiter-Glo luminescence, 16 h; series mostly up to 92.4 µM
Results filed as inconclusive are left out. The source made the active and inactive calls. The call rests on the fitted dose curve; in most records, active means well fitted cell-killing curve with a large enough effect in the repeat runs; inconclusive means weak or mixed curves; inactive means flat fitted curve, though single readings scatter.
Outcomes: T for active, F for inactive

RECORD_SMILES: O=[N+]([O-])O.O=[N+]([O-])O.[Cd]
CATEGORY_LABEL: T
//
RECORD_SMILES: CCCCCCCCCCCCCCCC[n+]1ccccc1
CATEGORY_LABEL: T
//
RECORD_SMILES: CCS(=O)(=O)c1cccnc1S(=O)(=O)NC(=O)Nc1nc(OC)cc(OC)n1
CATEGORY_LABEL: F
//
RECORD_SMILES: Oc1c(Br)c(Br)c(Br)c(Br)c1Br
CATEGORY_LABEL: F
//
RECORD_SMILES: COS(=O)(=O)c1ccc(C)cc1
CATEGORY_LABEL: F

====

ASSAY_REMARKS: qHTS assay to identify small molecule antagonists of the retinoid-related orphan receptor gamma (ROR-gamma) signaling pathway - cell viability counter screen (AID 1159520); further: nearly all actives have a fitted effect of over 50% in size
MEASUREMENT_PARAMETERS: Tet-on RORgamma CHO cells viability, ATP luminescence, 16 h; series mostly up to 92.4 µM
Inconclusive results are not listed. Calls of active or inactive are those of the source. Calls come from the whole dose curve; as a rule, active = well fitted cell-killing curve with a large enough effect in the repeat runs; inconclusive = weak or mixed curves, or effect the other way; inactive = no such curve, though single readings can be large or run the other way.
Outcomes: 1.0 for active, 0.0 for inactive

COMPOUND: C=CC(=O)N(C)C
CATEGORY_LABEL: 0.0
--
COMPOUND: O=C(CCl)Nc1ccccc1
CATEGORY_LABEL: 1.0
--
COMPOUND: C=CCC1=C(C)C(OC(=O)C2C(C=C(C)C)C2(C)C)CC1=O (stereo unspecified)
CATEGORY_LABEL: 1.0
--
COMPOUND: Clc1ccc(CO/N=C(\Cn2ccnc2)c2ccc(Cl)cc2Cl)c(Cl)c1
CATEGORY_LABEL: 1.0
--
COMPOUND: COc1cccc(C(=O)CCN[C@@H](C)[C@H](O)c2ccccc2)c1
CATEGORY_LABEL: 0.0
--
COMPOUND: CC(C)(C)OO
CATEGORY_LABEL: 0.0
--
COMPOUND: CN(C)C1CSSSC1
CATEGORY_LABEL: 0.0
--
COMPOUND: Cc1ccc(C(=O)Cl)cc1
CATEGORY_LABEL: 0.0
--
COMPOUND: CCOC(=O)c1ccccc1S(=O)(=O)NC(=O)Nc1nc(Cl)cc(OC)n1
CATEGORY_LABEL: 0.0
--
COMPOUND: CC(=O)c1ccc(-c2ccccc2)cc1
CATEGORY_LABEL: 0.0
--
COMPOUND: C[C@H]1O[C@@H](O[C@H]2[C@@H](O)C[C@H](O[C@H]3[C@@H](O)C[C@H](O[C@H]4CC[C@@]5(C)[C@H](CC[C@@H]6[C@@H]5CC[C@]5(C)[C@@H](C7=CC(=O)OC7)CC[C@]65O)C4)O[C@@H]3C)O[C@@H]2C)C[C@H](O)[C@@H]1O
CATEGORY_LABEL: 0.0
--
COMPOUND: O=C(CCCN1CCC2(CC1)C(=O)NCN2c1ccccc1)c1ccc(F)cc1
CATEGORY_LABEL: 0.0
--
COMPOUND: Fc1cccc(Cl)c1CCl
CATEGORY_LABEL: 0.0
--
COMPOUND: C[C@H]1CC[C@@H]2[C@@H](C)[C@H]3[C@H](C[C@H]4[C@@H]5CC=C6CC(O[C@@H]7O[C@H](CO)[C@H](O)[C@H](O[C@@H]8O[C@H](CO)[C@@H](O)[C@H](O)[C@H]8O)[C@H]7O[C@H]7O[C@@H](C)[C@H](O)[C@@H](O)[C@H]7O)CC[C@]6(C)[C@H]5CC[C@]34C)N2C1 (stereo partly specified)
CATEGORY_LABEL: 1.0
--
COMPOUND: CCOP(=S)(OCC)SCCS(=O)(=O)CC
CATEGORY_LABEL: 0.0
--
COMPOUND: C=CC(=O)OCCCCOC(=O)C=C
CATEGORY_LABEL: 1.0

====

ASSAY_REMARKS: qHTS RealTime-Glo MT Cell Viability Assay in HEK293 cells - 8 hour (AID 1224887); further: nearly all actives have a fitted effect of over 50% in size
MEASUREMENT_PARAMETERS: RealTime-Glo luminescence; series mostly up to 76.8 µM
Results filed as inconclusive are left out. Calls of active or inactive are those of the source. The call rests on the fitted dose curve; in most records, active means well fitted cell-killing curve with a large enough effect in the repeat runs; inconclusive means weak or mixed curves, or effect the other way; inactive means flat fitted curve, though single readings scatter.
Labels: active, inactive

MOLECULE: CN(C)[C@@H]1C(=O)C(C(N)=O)=C(O)[C@@]2(O)C(=O)C3=C(O)c4c(O)ccc(Cl)c4[C@@](C)(O)[C@H]3C[C@@H]12
CATEGORY_LABEL: inactive
//
MOLECULE: Oc1ccc2ccc3cccc4ccc1c2c34
CATEGORY_LABEL: active
//
MOLECULE: CC(C)OS(C)(=O)=O
CATEGORY_LABEL: inactive
//
MOLECULE: CC(C)CC(C)Nc1ccc(Nc2ccccc2)cc1 (stereo not given)
CATEGORY_LABEL: active
//
MOLECULE: CCCCCCCCCCCCCCCCCCn1cc[n+](C)c1
CATEGORY_LABEL: inactive

====

ASSAY_REMARKS: qHTS assay to identify small molecule HDAC inhibitors (AID 1259364);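 further: wild-type HCT-116 cells with endogenous class I/II HDAC activity; nearly all actives have a fitted effect of over 45% in size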
MEASUREMENT_PARAMETERS: HCT-116 HDAC-Glo I/II luminescence, 2 h; series mostly up to 92.4 µM
Results filed as inconclusive are left out. The source made the active and inactive calls. Calls come from the whole dose curve; as a rule, active = well fitted inhibition curve with a large enough effect in the repeat runs; inconclusive = weak or mixed curves; inactive = flat fitted curve, though single readings scatter.
Outcome codes: t = active, f = inactive

COMPOUND: CCOCn1c(-c2ccc(Cl)cc2)c(C#N)c(Br)c1C(F)(F)F
CATEGORY_LABEL: f
//
COMPOUND: NC(=O)c1ccc(N)nc1
CATEGORY_LABEL: f
//
COMPOUND: CC(C)[C@H](C(=O)OC(C#N)c1cccc(Oc2ccccc2)c1)c1ccc(OC(F)F)cc1 (stereo not given in full)
CATEGORY_LABEL: f
//
COMPOUND: CN(C)CCc1c[nH]c2ccc(O)cc12
CATEGORY_LABEL: f
//
COMPOUND: COC12CC[C@@]3(C[C@@H]1C(C)(O)C(C)(C)C)[C@H]1Cc4ccc(O)c5c4[C@@]3(CCN1CC1CC1)[C@H]2O5 (stereo not given in full)
CATEGORY_LABEL: f
//
COMPOUND: Oc1c(Br)c(Br)c(Br)c(Br)c1Br
CATEGORY_LABEL: f
//
COMPOUND: CCCCCCCCCCCCCCCC[N+](C)(C)C
CATEGORY_LABEL: f
//
COMPOUND: N#CCc1ccc(Cl)cc1
CATEGORY_LABEL: f
//
COMPOUND: Cn1[nH]nnc1=S
CATEGORY_LABEL: f
//
COMPOUND: Cc1cc(Cl)ccc1O[C@H](C)C(=O)O
CATEGORY_LABEL: f
//
COMPOUND: CC(C)CCCCCCCOP(=O)(Oc1ccccc1)Oc1ccccc1
CATEGORY_LABEL: f
//
COMPOUND: [Cd+2].[Cl-].[Cl-]
CATEGORY_LABEL: f
//
COMPOUND: FC(F)(F)c1cccc(C2=CCN(CCc3ccc4ccccc4c3)CC2)c1
CATEGORY_LABEL: f
//
COMPOUND: CCCCCCCCc1ccc(O)cc1
CATEGORY_LABEL: f
//
COMPOUND: Clc1ccc(CO/N=C(\Cn2ccnc2)c2ccc(Cl)cc2Cl)c(Cl)c1
CATEGORY_LABEL: f
//
COMPOUND: S=C=Nc1cccc2ccccc12
CATEGORY_LABEL: f
//
COMPOUND: COc1cc(C=O)cc2c1[C@H](COC(N)=O)[C@]1(OC(C)=O)ON2C[C@H]2[C@@H]1N2C(C)=O
CATEGORY_LABEL: f
//
COMPOUND: CC(=O)OC1(c2ccccc2)CCN(CCc2ccccc2)CC1
CATEGORY_LABEL: f
//
COMPOUND: O=c1c(C2CC(c3ccc(-c4ccc(Br)cc4)cc3)Cc3ccccc32)c(O)sc2ccccc12 (stereo not given)
CATEGORY_LABEL: f
//
COMPOUND: COc1cccc(C(=O)CCN[C@@H](C)[C@H](O)c2ccccc2)c1
CATEGORY_LABEL: f
//
COMPOUND: Clc1ccc(COC(Cn2ccnc2)c2ccc(Cl)cc2Cl)cc1 (stereo not given)
CATEGORY_LABEL: f
//
COMPOUND: CCCOCC(=Nc1ccc(Cl)cc1C(F)(F)F)n1ccnc1
CATEGORY_LABEL: f
//
COMPOUND: CC(c1ccc(O)cc1)c1ccc(O)cc1
CATEGORY_LABEL: f
//
COMPOUND: OC(Cc1ccccc1Cl)(Cn1cncn1)C1(Cl)CC1 (stereo not given)
CATEGORY_LABEL: f
//
COMPOUND: C=CCOC(N)=O
CATEGORY_LABEL: f
//
COMPOUND: Clc1ccc(CCC(Cn2ccnc2)Sc2c(Cl)cccc2Cl)cc1 (stereo not given)
CATEGORY_LABEL: f
//
COMPOUND: CCSC(C)CC1CC(=O)C(/C(CC)=N/OC/C=C/Cl)=C(O)C1 (stereo not given)
CATEGORY_LABEL: f
//
COMPOUND: CCCCCCCCCCCCCCCC[n+]1ccccc1
CATEGORY_LABEL: f
//
COMPOUND: CC(=O)c1ccc(-c2ccccc2)cc1
CATEGORY_LABEL: t
//
COMPOUND: CCc1ccccc1C
CATEGORY_LABEL: f
//
COMPOUND: CC(Cc1ccc(C(C)(C)C)cc1)CN1C[C@@H](C)O[C@@H](C)C1 (stereo not given in full)
CATEGORY_LABEL: f
//
COMPOUND: O=C1NCN(c2ccccc2)C12CCN(CC1COc3ccccc3O1)CC2 (stereo not given)
CATEGORY_LABEL: f
//
COMPOUND: CCC(C)(C)C(=O)OC1=C(c2ccc(Cl)cc2Cl)C(=O)OC12CCCCC2
CATEGORY_LABEL: f
//
COMPOUND: Clc1ccc(C(c2ccccc2Cl)C(Cl)(Cl)Cl)cc1 (stereo not given)
CATEGORY_LABEL: f
//
COMPOUND: ClC1=C(Cl)[C@]2(Cl)[C@H]3[C@H]([C@H]4C=C[C@H]3C4)[C@@]1(Cl)C2(Cl)Cl
CATEGORY_LABEL: f
//
COMPOUND: Oc1cccc(-c2ccccc2)c1
CATEGORY_LABEL: f
//
COMPOUND: Cc1ccc(C(=O)Cl)cc1
CATEGORY_LABEL: f
//
COMPOUND: N#Cc1c(-c2ccc(Cl)cc2)[nH]c(C(F)(F)F)c1Br
CATEGORY_LABEL: f
//
COMPOUND: Oc1cc(Cl)c(Cl)c(Cl)c1
CATEGORY_LABEL: f
//
COMPOUND: CN(C)S(=O)(=O)N(SC(F)(Cl)Cl)c1ccccc1
CATEGORY_LABEL: f
